- target or test system: PrP^Sc (pathogenic mouse prion protein, RML, in infected Balb-c mouse brain homogenate) (mouse), P04925
Form field: ELISA A405nm (one value per entry).
observed property: ELISA A405nm (A405nm)

| binder | observed property | test value |
| --- | --- | --- |
| GGGKKKKKKKK (modifications not checked) [Peptide reagent SEQ ID NO:85] | ELISA A405nm | 0.53 |
| GGGKPSKPK (modifications not checked) [Peptide reagent SEQ ID NO:80] | ELISA A405nm | 0.225 |
| PHGGGWGQ (modifications not checked) [Peptide reagent SEQ ID NO:71] | ELISA A405nm | 0.263 |
| GGGKKRAKAGG (modifications not checked) [Peptide reagent SEQ ID NO:98] | ELISA A405nm | 1.46 |
| GGGKKRPKPGGGKKRPKPGG (modifications not checked) [Peptide reagent SEQ ID NO:72] | ELISA A405nm | 0.522 |
| KKKAGAAAAGAVVGGLGG (modifications not checked) [Peptide reagent SEQ ID NO:65] | ELISA A405nm | 0.635 |
